Kindly supply the reported nonsense suppression values for the records listed here.
B1: tRNA (parent)
chain: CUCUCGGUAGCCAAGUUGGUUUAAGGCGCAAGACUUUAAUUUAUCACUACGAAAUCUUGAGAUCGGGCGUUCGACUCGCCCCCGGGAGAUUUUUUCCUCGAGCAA

- Variants of: B1
- assay-name: nonsense suppression (GFP-seq) (ratio to wild type); higher = more function; SUP4oc tRNA, yeast GFP reporter sort-seq
This sample holds only a part of the variants without activity.
Answers are plain numbers.

# example entries with known answers
Query: Returns the measured nonsense suppression for the input variant. Input: A13U A62C
Reply: 0.029

Query: Look up nonsense suppression for this variant: A31U A60U
Reply: 0.647

// batch mode: one nonsense suppression value per listed entry
1. C11U C75A
2. U20C U55C

Reply:
0.168
0.0996

Parameters: items (list). Returns: nonsense suppression for each item.
1. A9G G73A
2. A54C U63A

Reply:
0.12
0.377

For every listed record, write down its nonsense suppression.
1. A13U U16C U63G
2. C27A U55C
3. A9G G61U
4. C3U G10A
5. C5U A9G
6. A9G C11U

Reply:
1: 0.18; 2: 0.0902; 3: 1.1; 4: 0.0262; 5: 0.0324; 6: 0.0313

Reference for the values: the RNAGym collection of RNA variant scans (doi:10.1101/gad.245936.114)
